# system_tested: human TOR (Homo sapiens, UniProt P42345)
# Construct: FLAG
# test_details: mTOR enzyme assay (DELFIA, His6-S6K substrate)
# Format: biochemical
# reported_conditions: read-out: mTOR Kinase Avg. IC50
pIC50: −log10 of the molar value.
measure_name: pIC50

Consider the reported pIC50 for these molecules:
INSERT INTO measurements (molecule, measure_name, endpoint_result) VALUES
  ('COc1ccc2c(c1)c(/C=C1\Oc3c(ccc(O)c3C)C1=O)c(C)n2CCN1CCN(C)CC1 [Example 347]', 'pIC50', '< 5.40'),
  ('COc1ccc2c(c1)SC(=Cc1c[nH]c3ccc(OC)cc13)C2=O [Example 433]', 'pIC50', '< 4.70'),
  ('COc1cc(O)c2c(c1)O/C(=C\c1c(-c3ccccc3)n(C)c3ccccc13)C2=O [Example 421]', 'pIC50', '< 4.70'),
  ('COc1ccc2c(c1)c(/C=C1\Oc3c(ccc(O)c3F)C1=O)c(C)n2CCCN(C)C [Example 449]', 'pIC50', '< 4.70');

State the recorded pIC50 for this entry: COc1ccc2c(c1)c(/C=C1\Oc3c(ccc(O)c3F)C1=O)c(C)n2CCN1CCN(C)CC1 [Example 457] < 4.70
